What pIC50 was measured for each of the following?
Biological target: MMP-2 (Homo sapiens)
Construct: made in house; provided by Dr. Gregory Goldberg, Washington University
Sequence (P08253 110-660): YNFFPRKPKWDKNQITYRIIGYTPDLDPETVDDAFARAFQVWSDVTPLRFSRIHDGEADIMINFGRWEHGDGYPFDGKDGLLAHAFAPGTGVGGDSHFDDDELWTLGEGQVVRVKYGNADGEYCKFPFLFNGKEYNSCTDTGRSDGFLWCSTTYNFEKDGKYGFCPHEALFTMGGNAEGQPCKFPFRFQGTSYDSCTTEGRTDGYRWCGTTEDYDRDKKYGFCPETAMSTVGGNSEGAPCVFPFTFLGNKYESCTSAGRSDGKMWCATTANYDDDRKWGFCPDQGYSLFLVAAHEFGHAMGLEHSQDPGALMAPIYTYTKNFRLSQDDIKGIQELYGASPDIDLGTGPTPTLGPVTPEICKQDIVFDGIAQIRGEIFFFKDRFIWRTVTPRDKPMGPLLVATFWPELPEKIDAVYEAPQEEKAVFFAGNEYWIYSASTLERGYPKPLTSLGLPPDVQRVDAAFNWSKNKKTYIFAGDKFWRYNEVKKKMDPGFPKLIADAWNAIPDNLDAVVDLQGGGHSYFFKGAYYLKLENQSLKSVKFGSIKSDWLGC
Assay: biochemical
Settings: recombinant human MMP-2, MCA peptide substrate 4 μM, pH 7.5, room temperature; read-out: MMP-2 IC50
One number for each entry, as −log10 of the molar value.

Go through the list and state pIC50 for each entry.
1. CC1CCCN(c2ccc(S(=O)(=O)C3(C(=O)NO)CCOCC3)cc2)C1 (stereo not shown)
2. O=C(Nc1ccc(OC(F)(F)F)cc1)C1CCN(c2ccc(S(=O)(=O)C3(C(=O)NO)CCOCC3)cc2)CC1
3. O=C(NO)C1(S(=O)(=O)c2ccc(N3CCC(OCc4ccc(OC(F)(F)F)cc4)CC3)cc2)CCN(C2CC2)CC1

Result:
[6.70, 5.70, 5.85]

Ask: Please report the recorded pIC50 for O=C(Nc1ccc(Cl)c(Cl)c1)N1CCC(C(=O)NO)(S(=O)(=O)c2ccc(Oc3ccc(OC(F)(F)F)cc3)cc2)CC1 .
Result: 7.91

# credit: patent US6750228B1
